Catalogue of EC50 readings, one per entry.
- MEASURED ON: FXR (Homo sapiens (Human), UniProt Q96RI1)
- Sequence (Q96RI1 262-486): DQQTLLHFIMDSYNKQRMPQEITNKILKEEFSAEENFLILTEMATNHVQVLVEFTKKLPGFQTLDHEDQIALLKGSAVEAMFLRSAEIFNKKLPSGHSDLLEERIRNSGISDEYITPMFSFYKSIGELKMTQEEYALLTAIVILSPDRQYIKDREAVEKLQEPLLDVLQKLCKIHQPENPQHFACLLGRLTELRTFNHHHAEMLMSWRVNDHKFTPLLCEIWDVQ
- PROTOCOL TEXT: FXR EC50 (FXR agonist activity reported with each example)
- Assay type: cell-based
ASSAY METRIC: EC50

INSERT INTO assay_data (compound, assay_value) VALUES
  ('O=C(O)c1ccc(-c2noc(C34CCC(OCc5c(-c6ccccc6OC(F)(F)F)noc5C5CC5)(CC3)CC4)n2)nc1 [Example 42]', '1500 nM'),
  ('O=C(O)c1ncc(OCC23CCC(OCc4c(-c5ccccc5C(F)(F)F)noc4C4CC4)(CC2)CC3)c2ccccc12 [Example 296]', '62 nM'),
  ('O=C(O)Cc1ccc(/C=C/C23CCC(OCc4c(-c5c(Cl)cncc5Cl)noc4C4CC4)(CC2)CC3)cc1 [Example 516]', '173 nM'),
  ('COc1ccc(-c2noc(C34CCC(OCc5c(-c6ccccc6OC(F)(F)F)noc5C5CC5)(CC3)CC4)n2)cc1C(=O)O [Example 4]', '110 nM');

###

- MEASURED ON: UniProt Q96RI1
- PROTOCOL TEXT: transient human FXR/Gal4-luciferase reporter assay
- Type: cell-based
- PROTOCOL CONDITIONS: Gal4-hFXR LBD fusion in HEK293 reporter cells; relative to 8 μM GW-4064
ASSAY METRIC: EC50

INSERT INTO measurements (structure, assay_value) VALUES
  ('CCc1cc(OCC23CCC(OCc4c(-c5c(Cl)cncc5Cl)noc4C4CC4)(CC2)CC3)nn1CC(=O)O', '1500 nM'),
  ('COC1CN(c2nc(C(=O)O)cc3ccc(/C=C/C45CCC(OCc6c(-c7c(Cl)cncc7Cl)noc6C6CC6)(CC4)CC5)cc23)C1', '67 nM'),
  ('CC(F)(F)c1cc(OCC23CCC(OCc4c(-c5c(Cl)cncc5Cl)noc4C4CC4)(CC2)CC3)cnc1C(=O)O', '55 nM'),
  ('O=C(O)c1cc(OCC23CCC(OCc4c(-c5c(Cl)cncc5Cl)noc4C4CC4)(CC2)CC3)n(C2CC2)n1', '59 nM'),
  ('O=C(O)COc1cc(C#CC23CCC(OCc4c(-c5c(Cl)cncc5Cl)noc4C4CC4)(CC2)CC3)ccn1', '779 nM'),
  ('O=C(O)CCc1cccc(/C=C/C23CCC(OCc4c(-c5c(Cl)cncc5Cl)noc4C4CC4)(CC2)CC3)c1', '843 nM'),
  ('O=C(O)COc1ccc(/C=C/C23CCC(OCc4c(-c5c(Cl)cncc5Cl)noc4C4CC4)(CC2)CC3)c(F)c1', '1030 nM');

###

- MEASURED ON: UniProt Q96RI1
- PROTOCOL TEXT: FXR EC50 (FXR agonist activity reported with each example)
- Assay type: cell-based
Catalogue of EC50 readings, one per entry.
ASSAY METRIC: EC50 (nM)

INSERT INTO measurements (structure, quantity_unit, assay_value) VALUES
  ('COc1cc(-c2noc(C34CCC(OCc5c(-c6c(Cl)cncc6Cl)noc5C5CC5)(CC3)CC4)n2)cc(C(=O)O)c1F', 'nM', 130),
  ('COc1cc(C(=O)O)cc(-c2noc(C34CCC(OCc5c(-c6c(Cl)cncc6Cl)noc5C5CC5)(CC3)CC4)n2)c1', 'nM', 79),
  ('COc1ccc2nc(C34CCC(OCc5c(-c6c(Cl)cncc6Cl)noc5C5CC5)(CC3)CC4)ccc2c1C(=O)O', 'nM', 120);

###

- MEASURED ON: UniProtKB Q96RI1
- PROTOCOL TEXT: transient human FXR/Gal4-luciferase reporter assay
- Assay type: cell-based
- PROTOCOL CONDITIONS: Gal4-hFXR LBD fusion in HEK293 reporter cells; relative to 8 μM GW-4064
ASSAY METRIC: EC50 (nM)

INSERT INTO results (compound, assay_metric, quantity_unit, assay_value) VALUES
  ('O=C(O)COCc1ccc(C#CC23CCC(OCc4c(-c5c(Cl)cncc5Cl)noc4C4CC4)(CC2)CC3)nc1 [Example 569]', 'EC50', 'nM', 1360),
  ('O=C(O)c1cnc2ccc(/C=C/C34CCC(OCc5c(-c6c(Cl)cncc6Cl)noc5C5CC5)(CC3)CC4)cn12 [Example 593]', 'EC50', 'nM', 1130),
  ('O=C(O)c1cc2ccc(C#CC34CCC(OCc5c(-c6c(Cl)cncc6Cl)noc5C5CC5)(CC3)CC4)cc2c(N2CCC(O)CC2)n1 [Example 558]', 'EC50', 'nM', 20),
  ('O=C(O)Cc1ccc(/C=C/C23CCC(OCc4c(-c5c(Cl)cncc5Cl)noc4C4CC4)(CC2)CC3)c(F)c1 [Example 602]', 'EC50', 'nM', 81),
  ('O=C(O)c1cnc(C#CC23CCC(OCc4c(-c5c(Cl)cncc5Cl)noc4C4CC4)(CC2)CC3)cn1 [Example 542]', 'EC50', 'nM', 4880);

###

- MEASURED ON: FXR (Homo sapiens (Human))
- PROTOCOL TEXT: FXR EC50 (FXR agonist activity reported with each example)
- Type: cell-based
ASSAY METRIC: EC50 (nM)

INSERT INTO results (compound, quantity_unit, assay_value) VALUES
  ('O=C(O)c1ncc(OCC23CCC(OCc4c(-c5c(Cl)cncc5Cl)noc4C4CC4)(CC2)CC3)cc1OCC1CC1 [Example 337]', 'nM', 27),
  ('COc1cc(C(=O)N(C)C)nc2ccc(C#CC34CCC(OCc5c(-c6c(Cl)cncc6Cl)noc5C5CC5)(CC3)CC4)cc12 [Example 522]', 'nM', 52),
  ('COc1ccc(-c2noc(C34CCC(OCc5c(-c6c(Cl)cncc6Cl)noc5C5CC5)(CC3)CC4)n2)nc1C(=O)O [Example 253]', 'nM', 740),
  ('COC(=O)c1cccc(NC(=O)C23CCC(C=Cc4c(-c5c(Cl)cccc5Cl)noc4C4CC4)(CC2)C3)c1 [Example 229]', 'nM', 3600),
  ('O=C(O)CC1CCN(C(=O)C23CCC(OCc4c(-c5c(Cl)cccc5Cl)noc4C4CC4)(CC2)CC3)CC1 [Example 145]', 'nM', 3800),
  ('O=C(O)c1cccc(-c2noc(C34CCC(OCc5c(-c6c(Cl)cccc6Cl)noc5C5CC5)(CC3)CC4)n2)n1 [Example 13]', 'nM', 270),
  ('COC(=O)c1ccc(-c2noc(C34CCC(OCc5c(-c6ccccc6C(F)(F)F)noc5C5CC5)(CC3)CC4)n2)cc1 [Example 34]', 'nM', 5100),
  ('O=C(O)c1cc(OCC2CCC2)c2cc(OCC34CCC(OCc5c(-c6c(Cl)cncc6Cl)noc5C5CC5)(CC3)CC4)ccc2n1 [Example 353]', 'nM', 11),
  ('CCOc1cc(OCC23CCC(OCc4c(-c5c(Cl)cncc5Cl)noc4C4CC4)(CC2)CC3)cnc1C(N)=O [Example 295]', 'nM', 230),
  ('O=C(O)c1ccc(C23CCC(COCc4c(-c5c(Cl)cccc5Cl)noc4C4CC4)(CC2)CO3)cc1 [Example 201]', 'nM', 270),
  ('O=C(O)c1cc(-c2noc(C34CCC(OCc5c(-c6c(Cl)cncc6Cl)noc5C5CC5)(CC3)CC4)n2)cc(OCC(F)(F)F)n1 [Example 263]', 'nM', 95),
  ('Cn1cc(C(=O)O)c2ccc(C34CCC(OCc5c(-c6c(Cl)cccc6Cl)noc5C5CC5)(CC3)CC4)nc21 [Example 135]', 'nM', 9),
  ('O=C(O)c1ccc(-c2noc(C34CCC(OCc5c(-c6ccccc6OC(F)(F)F)noc5C5CC5)(CC3)CO4)n2)cc1 [Example 212]', 'nM', 1000);

###

- MEASURED ON: FXR (Homo sapiens (Human), UniProt Q96RI1)
- PROTOCOL TEXT: transient human FXR/Gal4-luciferase reporter assay
- Type: cell-based
- PROTOCOL CONDITIONS: Gal4-hFXR LBD fusion in HEK293 reporter cells; relative to 8 μM GW-4064
Catalogue of EC50 readings, one per entry.
ASSAY METRIC: EC50 (nM)

INSERT INTO assay_data (structure, assay_metric, quantity_unit, assay_value) VALUES
  ('O=C(O)Cc1ccc(/C=C/C23CCC(OCc4c(-c5c(Cl)cncc5Cl)noc4C4CC4)(CC2)CC3)cn1', 'EC50', 'nM', 1350),
  ('O=C(O)CCc1cc(/C=C/C23CCC(OCc4c(-c5c(Cl)cncc5Cl)noc4C4CC4)(CC2)CC3)ccc1OCC(F)F', 'EC50', 'nM', 438),
  ('CN1CCN(c2ncc(C(=O)O)cc2C#CC23CCC(OCc4c(-c5c(Cl)cncc5Cl)noc4C4CC4)(CC2)CC3)CC1', 'EC50', 'nM', 524),
  ('O=C(O)c1cc2ccc(C#CC34CCC(OCc5c(-c6c(Cl)cncc6Cl)noc5C5CC5)(CC3)CC4)cc2c(N2CCOCC2)n1', 'EC50', 'nM', 13),
  ('O=C(O)c1cc2ccc(/C=C/C34CCC(OCc5c(-c6c(Cl)cncc6Cl)noc5C5CC5)(CC3)CC4)cc2c(OC2CCCC2)n1', 'EC50', 'nM', 52),
  ('CC(C)Oc1cc(C(=O)O)nc2ccc(CCC34CCC(OCc5c(-c6c(Cl)cncc6Cl)noc5C5CC5)(CC3)CC4)cc12', 'EC50', 'nM', 30),
  ('O=C(O)c1cc2ccc(/C=C/C34CCC(OCc5c(-c6c(Cl)cncc6Cl)noc5C5CC5)(CC3)CC4)cc2c(N2CC(F)C2)n1', 'EC50', 'nM', 22),
  ('CCOc1nc(C(=O)O)cc2ccc(OCC34CCC(OCc5c(-c6c(Cl)cncc6Cl)noc5C5CC5)(CC3)CC4)cc12', 'EC50', 'nM', 18),
  ('O=C(O)Cc1ccc(C#CC23CCC(OCc4c(-c5c(Cl)cncc5Cl)noc4C4CC4)(CC2)CC3)c(C(F)(F)F)c1', 'EC50', 'nM', 115),
  ('Cc1c(OCC23CCC(OCc4c(-c5c(Cl)cncc5Cl)noc4C4CC4)(CC2)CC3)nn(C(C)C)c1C(=O)O', 'EC50', 'nM', 138),
  ('O=C(O)c1csc(-c2ccc(/C=C/C34CCC(OCc5c(-c6c(Cl)cncc6Cl)noc5C5CC5)(CC3)CC4)cc2)n1', 'EC50', 'nM', 72),
  ('O=C(O)c1ccn2cc(OCC34CCC(OCc5c(-c6c(Cl)cncc6Cl)noc5C5CC5)(CC3)CC4)nc2c1', 'EC50', 'nM', 90),
  ('CCn1nc(OCC23CCC(OCc4c(-c5c(Cl)cncc5Cl)noc4C4CC4)(CC2)CC3)c(C)c1C(=O)O', 'EC50', 'nM', 219),
  ('O=C(O)c1cc(OC2COC2)c2nc(C34CCC(OCc5c(-c6c(Cl)cncc6Cl)noc5C5CC5)(CC3)CC4)ccc2c1', 'EC50', 'nM', 118),
  ('O=C(O)Cc1ccc(/C=C/C23CCC(OCc4c(-c5c(Cl)cncc5Cl)noc4C4CC4)(CC2)CC3)cc1', 'EC50', 'nM', 173),
  ('O=C(O)COCc1ccc(C#CC23CCC(OCc4c(-c5c(Cl)cncc5Cl)noc4C4CC4)(CC2)CC3)cc1', 'EC50', 'nM', 194),
  ('O=C(O)CCc1ccc(C#CC23CCC(OCc4c(-c5c(Cl)cncc5Cl)noc4C4CC4)(CC2)CC3)cc1', 'EC50', 'nM', 175),
  ('O=C(O)c1cc(OC2CCCC2)c2cc(/C=C/C34CCC(OCc5c(-c6c(Cl)cncc6Cl)noc5C5CC5)(CC3)CC4)ccc2n1', 'EC50', 'nM', 17),
  ('O=C(O)c1cncc(NCC23CCC(OCc4c(-c5c(Cl)cccc5Cl)noc4C4CC4)(CC2)CC3)c1', 'EC50', 'nM', 543),
  ('Cn1c(C(=O)O)cc2c(/C=C/C34CCC(OCc5c(-c6c(Cl)cncc6Cl)noc5C5CC5)(CC3)CC4)cccc21', 'EC50', 'nM', 208);
